Numbers sourced from patent US5792775A.

System: dopamine uptake, rat caudate putamen
Type: biochemical
Settings: Table IV; head prints no unit; IC50 in nM; read-out: [^3 H]DAU (inhibition of [^3 H]-Dopamine Uptake)
# True = IC50 below 200 nM (exclusive); False = IC50 at/above 200 nM

Worked examples follow.
# query smiles, target, classification
rows = [
    ("Fc1ccc(C(O[C@H]2C[C@H]3CC[C@@H](C2)N3Cc2ccccc2)c2ccc(F)cc2)cc1", "dopamine uptake, rat caudate putamen", "False"),
    ("Fc1ccc(C(O[C@H]2C[C@H]3CC[C@@H](C2)N3CC=Cc2ccccc2)c2ccc(F)cc2)cc1", "dopamine uptake, rat caudate putamen", "True"),
    ("Fc1ccc(C(O[C@H]2C[C@H]3CC[C@@H](C2)N3CCCc2ccccc2)c2ccc(F)cc2)cc1", "dopamine uptake, rat caudate putamen", "False"),
    ("Fc1ccc(C(O[C@H]2C[C@H]3CC[C@@H](C2)N3CC2CC2)c2ccc(F)cc2)cc1", "dopamine uptake, rat caudate putamen", "True"),
    ("Fc1ccc(C(O[C@H]2C[C@H]3CC[C@@H](C2)N3)c2ccc(F)cc2)cc1", "dopamine uptake, rat caudate putamen", "True"),
]

Say whether its IC50 is strictly beneath 200 nM. Entry: O=CN1[C@@H]2CC[C@H]1C[C@@H](OC(c1ccc(F)cc1)c1ccc(F)cc1)C2 False

For this compound, is IC50 lower than 200 nM? C=CCN1[C@@H]2CC[C@H]1C[C@@H](OC(c1ccc(F)cc1)c1ccc(F)cc1)C2 True

* * *

Target: norepinephrine transporter (NET) (Rattus norvegicus)
Sequence (Q63380 1-617): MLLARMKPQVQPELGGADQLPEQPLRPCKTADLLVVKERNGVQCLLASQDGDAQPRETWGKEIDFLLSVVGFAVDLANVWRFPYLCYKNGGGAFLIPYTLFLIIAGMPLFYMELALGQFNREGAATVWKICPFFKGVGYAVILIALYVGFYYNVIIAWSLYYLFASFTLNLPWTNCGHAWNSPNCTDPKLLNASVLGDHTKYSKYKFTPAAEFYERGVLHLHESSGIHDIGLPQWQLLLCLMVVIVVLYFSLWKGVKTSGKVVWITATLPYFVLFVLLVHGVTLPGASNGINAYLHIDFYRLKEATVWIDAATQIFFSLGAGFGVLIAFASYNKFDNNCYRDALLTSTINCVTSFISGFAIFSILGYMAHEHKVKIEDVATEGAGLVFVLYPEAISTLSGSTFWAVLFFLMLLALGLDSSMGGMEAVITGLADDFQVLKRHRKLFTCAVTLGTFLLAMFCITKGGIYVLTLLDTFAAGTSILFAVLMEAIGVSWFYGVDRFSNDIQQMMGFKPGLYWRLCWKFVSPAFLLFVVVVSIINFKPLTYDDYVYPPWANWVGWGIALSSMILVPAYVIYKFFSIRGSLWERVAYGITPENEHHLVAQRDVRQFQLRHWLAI
Assay: biochemical
Type: binding
Conditions: read-out: NET (% I@10 μM)
Recorded measurements of inhibition at 10 µM, one per entry

The examples below pair each entry with its known result.
# molecule, target, inhibition at 10 µM
data = [
    ("CN1[C@@H]2CC[C@H]1C[C@@H](OC(c1ccccc1)c1ccc(C#N)cc1)C2 (some centres unmarked)", "norepinephrine transporter (NET) (Rattus norvegicus)", "16%"),
    ("CN1[C@@H]2CC[C@H]1C[C@@H](OC(c1ccc(Br)cc1)c1ccc(Br)cc1)C2", "norepinephrine transporter (NET) (Rattus norvegicus)", "41.1%"),
    ("CCc1ccc(C(O[C@H]2C[C@H]3CC[C@@H](C2)N3C)c2ccccc2)cc1 (some centres unmarked)", "norepinephrine transporter (NET) (Rattus norvegicus)", "32.7%"),
]

# lookup: inhibition at 10 µM of COc1ccc(C(O[C@H]2C[C@H]3CC[C@@H](C2)N3C)c2ccc(OC)cc2)cc1 34%

May I ask what inhibition at 10 µM has been recorded for Cc1ccc(C(O[C@H]2C[C@H]3CC[C@@H](C2)N3C)c2ccc(C)cc2)cc1 ? 35.1%

* * *

Biological target: muscarinic m1 receptors (Rattus norvegicus)
Sequence (P08482 whole entry): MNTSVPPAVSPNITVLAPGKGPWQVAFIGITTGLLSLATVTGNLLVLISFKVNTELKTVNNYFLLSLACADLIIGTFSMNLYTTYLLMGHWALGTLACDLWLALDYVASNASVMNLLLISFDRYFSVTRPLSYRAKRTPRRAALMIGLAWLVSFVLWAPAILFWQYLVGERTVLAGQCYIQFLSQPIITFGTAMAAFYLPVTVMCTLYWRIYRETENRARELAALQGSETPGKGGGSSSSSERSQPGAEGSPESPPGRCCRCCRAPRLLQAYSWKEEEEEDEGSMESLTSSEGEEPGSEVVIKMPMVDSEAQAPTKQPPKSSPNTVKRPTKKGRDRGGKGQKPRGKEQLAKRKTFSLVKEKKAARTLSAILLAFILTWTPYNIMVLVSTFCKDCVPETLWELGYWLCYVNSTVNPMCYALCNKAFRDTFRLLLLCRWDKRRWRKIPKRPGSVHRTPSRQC
Assay: biochemical
Assay type: binding
Details: Table III; read-out: m1, Ki
Quick list: pKi per entry.
Please treat pKi as minus the base-10 logarithm of the molar concentration.

Answered examples (4):
# compound, pKi
measured = [
    ("CN1[C@@H]2CC[C@H]1C[C@@H](OC(c1ccccc1)c1ccc(C(C)(C)C)cc1)C2 (some centres unmarked) [Compound 7n]", 6.83),
    ("CN1[C@@H]2CC[C@H]1C[C@@H](OC(c1ccccc1)c1ccc([N+](=O)[O-])cc1)C2 (some centres unmarked) [Compound 7f]", 8.15),
    ("Cc1ccc(C(O[C@H]2C[C@H]3CC[C@@H](C2)N3C)c2ccc(C)cc2)cc1 [Compound 7o]", 7.33),
    ("CN1[C@@H]2CC[C@H]1C[C@@H](OC(c1ccccc1)c1ccc(O)cc1)C2 (stereo partly drawn) [Compound 7r, 3α-4'-Hydroxy-(diphenylmethoxy)tropane]", 8.68),
]

Attention now shifts to the item below.
Endpoint output: pKi of COc1ccc(C(O[C@H]2C[C@H]3CC[C@@H](C2)N3C)c2ccc(OC)cc2)cc1 [Compound 7e] . Value? 7.40
